target.system: T1, Recombinant soluble E protein (0.8E-His) from DENV-3 (DENV-3, UniProt P27915 281-673)
T1 construct: also called DENV-3 E protein; DV3
Consider the cut-off 2 pM. If the recorded Kd is strictly smaller, the label is yes; if not, the label is no.

DG_3CH1000-SG182/3CL668-SK1 (antibody, V domains shown) VH: QVQLVQSGPDVEKPGASVKVSCKASGYTFTSYYMHWVRQAPGQGLEWMGVINPRGGSRRSAQKFQGRITMTRDTSTSTVYMELSSLRSEDTAVYYCARGGRALFYDSYTTPFDGGSWWFDPWGQGSLVTVSS VL: DIQLTQSPSSLSASVGDRVTITCQASQDIRKYLNWYQQKPGKAPKLLIYDASNLKTGVPSRFSGSGSGTDFTLTISSLQPEDVATYYCQQFEDLPITFGQGTRLQIKR ... yes
DG_3CH1047-SG182/3CL658-SK1 (antibody, human IgG1, kappa, V domains shown, also called 3Cam) VH: QVQLVQSGPDVEKPGASVKVSCKASGYTFTSYYMHWVRQAPGQGLEWMGVINPRGGSRRSAQKFQGRITMTRDTSTSTVYMELSSLRSEDTAVYYCARGGEALFYDSYTTPFDGGSWWFDPWGQGSLVTVSS VL: DIQLTQSPSSLSASVGDRVTFTCQASQEIRKYLNWYQQKPGKAPKLLIYDASELKTGVPSRFSGSGSGTDFTFTISSLQPEDVATYYCQQFEDLPITFGQGTRLQIKR ... no
DG_3CH992-SG182/3CL012-SK1 (antibody, V domains shown) VH: QVQLVQSGAEVKKPGASVKVSCKASGYTFTSYYIHWVRQAPGQGLEWMGVINPRGGSRRSAQKFQGRVTMTRDTSTSTVYMELSSLRSEDTAVYYCARGGRALFYDSYTTPFDGGSWWFDPWGQGSLVTVSS VL: DIQLTQSPSSLSASVGDRVTFTCQASQDIRKYLNWYQQKPGKAPKLLIYDASNLKTGVPSRFSGSGSGTDFTFTISSLQPEDVATYYCQQFEDLPITFGQGTRLQIKR ... yes
DG_3CH992-SG182/3CL119-SK1 (antibody, V domains shown) VH: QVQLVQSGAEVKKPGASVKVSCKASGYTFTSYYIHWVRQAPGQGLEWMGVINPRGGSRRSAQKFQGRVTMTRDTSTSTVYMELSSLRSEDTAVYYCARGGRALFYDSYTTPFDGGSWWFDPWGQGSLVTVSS VL: DIQLTQSPSSLSASVGDRVTFTCQASQEIRKYLNWYQQKPGKAPKLLIYDASNLKTGVPSRFSGSGSGTDFTFTISSLQPEDVATYYCQQFDDLPITFGQGTRLQIKR ... yes

Now consider a different binder.
Challenge: For DG_3CH1049-SG182/3CL668-SK1 (antibody, V domains shown) VH: QVQLVQSGAEVKKPGASVKVSCKASGYTFTSYYMHWVRQAPGQGLEWMGVINPRGGSRRSAQKFQGRVTMTRDTSTSTVYMELSSLRSEDTAVYYCARGGEALFYDSYTTPFDGGSWWFDPWGQGSLVTVSS VL: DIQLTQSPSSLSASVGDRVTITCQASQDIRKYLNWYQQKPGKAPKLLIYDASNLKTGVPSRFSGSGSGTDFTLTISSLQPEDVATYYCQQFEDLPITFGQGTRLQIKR , is the recorded Kd below the cut-off of 2 pM?
Response given: yes
